Tested on: Chilo suppressalis
Experiment: Insecticidal activity against Chilo suppressalis, spraying of rice seedlings
Type: in vivo
Conditions: 72 h, 0.25 mg/L, parallel comparative test, read-out: Mortality (%, 3 days after administration) 0.25 mg/L
Listing: mortality at 0.25 µg/mL of selected compounds
The reply should be a number in %, with the unit left off.

COMPOUND: Cc1cc(C2=NOC(c3cc(Cl)cc(Cl)c3)(C(F)(F)F)C2)ccc1C(=O)N(CC(=O)NCC(F)(F)F)C(=O)C1CC1 (stereo not drawn)
TARGET DESC: Chilo suppressalis
MEASUREMENT UNITS: %
mortality at 0.25 µg/mL: 73.3

Query: Which mortality at 0.25 µg/mL reading was recorded for the compound CCC(=O)N(CC(=O)NCC(F)(F)F)C(=O)c1ccc(C2=NOC(c3cc(Cl)cc(Cl)c3)(C(F)(F)F)C2)cc1C (stereo not drawn) [KC3, reference compound] ?
Reply: 0

Query: Name the recorded mortality at 0.25 µg/mL for COCCC(=O)N(CC(=O)NCC(F)(F)F)C(=O)c1ccc(C2=NOC(c3cc(Cl)cc(Cl)c3)(C(F)(F)F)C2)cc1C (stereo not drawn) .
Reply: 80
